# tested-on: T1, P983_AMBCA (Amblyomma cajennense, UniProt A0A023FFB5 22-119)
# T1 sequence: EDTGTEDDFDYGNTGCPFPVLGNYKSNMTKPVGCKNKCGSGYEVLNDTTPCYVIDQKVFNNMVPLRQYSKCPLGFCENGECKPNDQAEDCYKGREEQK
# assay-info: BLI;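 note: biolayer interferometry on an Octet system: chemokines at several doses tested against tick chemokine-binding proteins, association, equilibrium and dissociation curves fitted to derive Kd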
value-kind: Kd

Sample answers from the record:
{"columns": ["binder", "Kd"],
 "data": [
  ["CCL8_HUMAN (ligand, UniProt P80075 24-99, looked up) QPDSVSIPITCCFNVINRKIPIQRLESYTRITNIQCPKEAVIFKTKRGKEVCADPKERWVRDSMKHLDQIFQNLKP", "7 nM"],
  ["CCL4L1_HUMAN (ligand) APMGSDPPTACCFSYTARKLPRNFVVDYYETSSLCSQPAVVFQTKRGKQVCADPSESWVQEYVYDLELN", "2.9 nM"],
  ["CCL4_HUMAN (ligand) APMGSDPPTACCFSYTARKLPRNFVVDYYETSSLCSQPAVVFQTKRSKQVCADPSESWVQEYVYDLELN", "8 nM"],
  ["CCL3L1_HUMAN (ligand) APLAADTPTACCFSYTSRQIPQNFIADYFETSSQCSKPSVIFLTKRGRQVCADPSEEWVQKYVSDLELSA", "2.1 nM"],
  ["CCL14_HUMAN (ligand) TESSSRGPYHPSECCFTYTTYKIPRQRIMDYYETNSQCSKPGIVFITKRGHSVCTNPSDKWVQDYIKDMKEN", "81 nM"]
]}

Moving on to another binder below.
Ask | Using known records, supply Kd for CCL3_HUMAN (ligand) SLAADTPTACCFSYTSRQIPQNFIADYFETSSQCSKPGVIFLTKRSRQVCADPSEEWVQKYVSDLELSA
Reply | 3.5 nM
